System: CP329
assay_summary: qHTS profiling for inhibitors of Plasmodium falciparum proliferation (AID 504749); also: nearly all actives have a fitted effect of over 60% in size
conditions_used: P. falciparum in erythrocytes, SYBR Green DNA, 72 h; series mostly up to 28.7 µM
Records with an inconclusive call do not appear. Calls of active or inactive are those of the source. Calls follow the shape of the dose curve; as a rule, active = well fitted inhibition curve with a large enough effect; inconclusive = small, poorly fitted or top-dose-only effect; inactive = flat fitted curve, though single readings scatter.
Outcome codes: active, inactive

| chemical_string | class_name |
| --- | --- |
| CN1CCC[C@@H]1c1cccnc1 | inactive |
| Cc1cc(N)c2cc(NC(=O)Nc3ccc4nc(C)cc(N)c4c3)ccc2n1 | active |
| COC(=O)[C@H]1[C@H]2C[C@H]3c4[nH]c5ccccc5c4CCN3C[C@H]2CC[C@@H]1O | inactive |
| CCC(=O)c1c(O)cc(O)cc1O | inactive |
| O=C(Nc1ccc(Cl)c(Cl)c1)C1CC1 | inactive |
| COCc1c(C(C)C)nc(C(C)C)c(/C=C/[C@@H](O)C[C@@H](O)CC(=O)O)c1-c1ccc(F)cc1 | inactive |
| C[C@@H]1C(=O)NC2=Nc3cccc(Cl)c3CN21 | inactive |
| CCN(CC)C(=O)/C(C#N)=C/c1cc(O)c(O)c([N+](=O)[O-])c1 | inactive |
| CC[N+](CC)(CCNC(=O)C(=O)NCC[N+](CC)(CC)Cc1ccccc1Cl)Cc1ccccc1Cl | active |
| C#C[C@]1(OC(C)=O)CC[C@H]2[C@@H]3CCC4=C[C@@H](OC(C)=O)CC[C@@H]4[C@H]3CC[C@@]21C | inactive |
